Listed here: items and their measured apparent KD of K4 kissing-loop reporter.
tested on: K4 kissing-loop RNA reporter; experiment: apparent KD of K4 kissing-loop reporter; higher = weaker reporter binding; details: Eterna round: R107; input ligand: arginine 13.2 mM;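 note: bound reporter read as fluorescence of individual clusters on recovered sequencing chips by microscopy, with normalized cluster intensities fitted with a binding model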

- Biopolymer Sequence: "CGCGUUGGUUGAGAGGUUGGCGCGAAUGAUACCAGUAUAUAAGAAUACCCUUGGCAGCAUAAGAAAGAUAUAGUGAUGUUGUAUA [SSTheophA.I]"
  apparent KD of K4 kissing-loop reporter, nM: 232
- Biopolymer Sequence: "CAUCUCAUGAAAUGAGAUGUCAUCAGUGAAGGAGCGCUAUUAGCAGCAGGUAGGUCGCACUGAAGCGGAGUGAUGUUCUGUAUGA [Arg A SS t3]"
  apparent KD of K4 kissing-loop reporter, nM: 220
- Biopolymer Sequence: "CGGUACGUCGCAGGAUAUGGAUUCUGGAGUGAUGUUUCAGAGGCAUGCGGAAAACGCAUGCCGACUCCAGAAGGGCGACGUACCG"
  apparent KD of K4 kissing-loop reporter, nM: 85.8
- Biopolymer Sequence: "UGUAUGUGAUUUGAUACCAGACCAUCUUGUGAGAAGUGAGUGAUGUUUAUUUUGGUUUGGGUCCCUUGGCAGCAAAUCGCAUACU [KL-SSTheoB23]"
  apparent KD of K4 kissing-loop reporter, nM: 560
- Biopolymer Sequence: "AAGAAUAAUCUUGCAGUGAUGUUGCAAGAUACCAGCAUCGAAAGAUGCCCUUGGCAGCUUGAAAACAUCACUAUCAAGCUGCAUA [Design2]"
  apparent KD of K4 kissing-loop reporter, nM: 452
- Biopolymer Sequence: "GCGUUACUGAAAGGAUAUGAUCAACAUAGUGGUCAGUGAUGUUGGCAGGCCUCGUGGCGAGGUAGAUCAGAAGGUUCAUUACGAC [theeternabot_sameState_KL_FMN_B_11]"
  apparent KD of K4 kissing-loop reporter, nM: 484
- Biopolymer Sequence: "CCGUGGAGUGAUGUUCCACGUAAUACGGAUACCAGCUUUGCCAAAGGCCCUUGGCAGCCGCACGUUGCAGUGAUGUUGUGGCGCG [Same State Theophylline A G8]"
  apparent KD of K4 kissing-loop reporter, nM: 143
- Biopolymer Sequence: "GAUUACAACAGAGUGAUGUUCUGACUUUCUCGAGGACCGGUACGGCCGCCACUCGUUAAACAAAGUGGUUUGCCAAGGCCAACUU"
  apparent KD of K4 kissing-loop reporter, nM: 198
- Biopolymer Sequence: "AGUCCUAUGACGGCCGCCACUCCGGUUAUGAUUUGCCAAGUGAUGUUUGGGUAUCAGGCGAGGCGGAGGACCGGGUCGACCUGCC [theeternabot_exclusion_KL_Trp_B_18]"
  apparent KD of K4 kissing-loop reporter, nM: 139
- Biopolymer Sequence: "AGACCCUGGUAGGAUACCAGCGGCAUGCAGUGCGAGAGAGCGUAGUGAUGUUACGAGACCCGCCCUUGGCAGCCUGGGAAUGUGU [theeternabot_exclusion_KL_Theo_B_50]"
  apparent KD of K4 kissing-loop reporter, nM: 67.8
- Biopolymer Sequence: "CGGAGUGAUGUUCCGUUAAUUAAUUAUUUACGAGGACCGGUACGGCCGCCACUCGAUUUUGCUUUUAUUUAAUGUUUGGAAAUUU [JR_SSTryptoA_Sub006]"
  apparent KD of K4 kissing-loop reporter, nM: 143
- Biopolymer Sequence: "AACUGCUAAGAGGUUAAGCACGUCAUUAUGAAGGAUAUAGAAUUCACUAGAAGGUCAUGUGCCCUGAGUGAUGUUCAGAUAGGCG [theeternabot_sameState_KL_FMN_A_25]"
  apparent KD of K4 kissing-loop reporter, nM: 229
